tested on: DLD1 NRF2-WT; assay: drug sensitivity score (DSS) cytotoxicity (DSS score); higher = more toxic; extreme values may be limits of the assay; settings: 72 h; CellTox Green cytotoxicity
MEASURED ATTRIBUTE: drug sensitivity score
Lab note: jot the number down without any unit.

A selection of reference data follows.
1) CCCCCCCCc1ccc(CCC(N)(CO)CO)cc1 [Fingolimod]    5.6
2) O=C(Nc1cc(Oc2cc(F)c(NC(=O)C3(C(=O)Nc4ccc(F)cc4)CC3)cc2F)ccn1)C1CC1 [Altiratinib]    0.6
3) O=c1[nH]c(C2CCCN2)nc2c1oc1ccc(Cl)cc12 (centres undefined)    0
4) CC[C@@H]1CN(C(=O)NCC(F)(F)F)C[C@@H]1c1cnc2cnc3[nH]ccc3n12 [Upadacitinib]    0
5) Nc1ncnc2c1nc(N)n2[C@@H]1O[C@H](CO)[C@@H](O)[C@H]1O [8-amino-adenosine]    11.8

Switching to the query record.
q: Please give the measured drug sensitivity score for this compound: COc1cc2c(NC3CCN(C(C)C)CC3)nc(C3CCCCC3)nc2cc1OCCCN1CCCC1 [UNC0638]
a: 0

* * *

tested on: DLD1 NRF2-WT; conditions: 72 h; CellTiter-Glo viability
MEASURED ATTRIBUTE: EC50 viability (µM)
Your answer is read as µM, so omit the unit and give the number.

1. CC1CCC(n2c3cnccc3c3cnc(Nc4ccc5c(n4)CCN(C(=O)CO)C5)nc32)CC1 (configuration not stated)    0.0997
2. CC(C)(C)c1nc(-c2cccc(NS(=O)(=O)c3c(F)cccc3F)c2F)c(-c2ccnc(N)n2)s1    0.993
3. Cc1sc2c(c1C)C(c1ccc(Cl)cc1)=N[C@@H](CC(=O)NCCCCNC(=O)COc1cccc3c1C(=O)N(C1CCC(=O)NC1=O)C3=O)c1nnc(C)n1-2 (some centres not stated)    0.62
4. CC(=O)c1c(C)c2cnc(Nc3ccc(N4CCNCC4)cn3)nc2n(C2CCCC2)c1=O    0.315
5. Cc1cc(Nc2ncc(Cl)c(Nc3ccccc3S(=O)(=O)C(C)C)n2)c(OC(C)C)cc1C1CCNCC1    0.546

q: Value lookup for EC50 viability; key = CCCCCCCCCCCCCCCCOP(=O)([O-])OCC[N+](C)(C)C
a: 7.67

q: Also check CC/C(=C(\c1ccccc1)c1ccc(OCCN(C)C)cc1)c1ccccc1
a: 4.36

q: What about this compound? CC(C)Nc1cc(-c2c[nH]c(C(=O)N[C@H](CO)c3cccc(Cl)c3)c2)c(Cl)cn1
a: 1.47

* * *

The reader will find reported drug sensitivity score values listed item by item below.
tested on: DLD1 NRF2-WT; test: drug sensitivity score (DSS) cytotoxicity (DSS score); higher = more toxic; extreme values may be limits of the assay; conditions: 72 h; CellTox Green cytotoxicity
Answer using only a numeral; do not append any unit.

1) Oc1ncnc2[nH]ncc12    0
2) CC1(C)CC[C@]2(NC(=O)C(C)(F)F)CC[C@]3(C)[C@H](C(=O)C=C4[C@@]5(C)C=C(C#N)C(=O)C(C)(C)[C@@H]5CC[C@]43C)[C@@H]2C1    0
3) Cc1cccc(-c2nn3c(c2-c2ccnc4ccc(C(N)=O)cc24)CCC3)n1    0
4) CC(=O)Nc1ccc(C(=O)Nc2ccccc2N)cc1    0
5) N#Cc1ccc2[nH]c(O)c(-c3ccc(CN4CCOCC4)cn3)c2c1    0

q: Name the reported drug sensitivity score value associated with the compound CC(C)C[C@H](NC(=O)CNC(=O)c1cc(Cl)ccc1Cl)B(O)O
a: 9.6

q: Try C[C@@H](Nc1cc(F)cc(F)c1)c1cc(C(=O)N(C)C)cc2c(=O)cc(N3CCOCC3)oc12 next.
a: 0

q: Would you mind doing CC(C)(C)c1cc(NC(=O)Nc2ccc(-c3cn4c(n3)sc3cc(OCCN5CCOCC5)ccc34)cc2)no1 as well?
a: 0

q: And then COC[C@H](NC(=O)c1cnc(C)s1)C(=O)N[C@@H](COC)C(=O)N[C@@H](Cc1ccccc1)C(=O)[C@@]1(C)CO1 , what is it?
a: 19.7

q: And then COC(=O)C[C@](O)(CCCC(C)(C)O)C(=O)O[C@@H]1C(OC)=C[C@]23CCCN2CCc2cc4c(cc2[C@H]13)OCO4 , what is it?
a: 10.1

* * *

system: DLD1 NRF2-WT; assay: drug sensitivity score (DSS) viability (DSS score); higher = more sensitive; extreme values may be limits of the assay; settings: 72 h; CellTiter-Glo viability
MEASURED ATTRIBUTE: drug sensitivity score

Solved entries (count: 5):
1. Cc1nc2cccc(N)c2c(=O)n1C1CCC(=O)NC1=O (configuration not stated)    3.2
2. Cc1cc2c(C(C)C)c(O)c(O)c(C=O)c2c(O)c1-c1c(C)cc2c(C(C)C)c(O)c(O)c(C=O)c2c1O    15.9
3. CC1(C)NC(=O)N(c2ccc([N+](=O)[O-])c(C(F)(F)F)c2)C1=O [Nilutamide]    0
4. C[C@@H]1COCCN1c1cc(C2([S@](C)(=N)=O)CC2)nc(-c2cc[nH]c3nccc2-3)n1    7.8
5. COc1cc(NS(C)(=O)=O)ccc1Nc1c2ccccc2nc2ccccc12    4.4

q: // lookup drug sensitivity score for Nc1nc(F)nc2c1ncn2[C@@H]1O[C@H](CO)[C@@H](O)[C@@H]1O
a: 0.1

q: Try this molecule too: COc1cc2ncnc(Nc3ccc(F)c(Cl)c3)c2cc1OCCCN1CCOCC1
a: 3.7

q: And the next one, O=c1ncn2nc(Sc3ccc(F)cc3F)ccc2c1-c1c(Cl)cccc1Cl ?
a: 1.4

q: Also COc1cc(N2CCC(N3CCN(C)CC3)CC2)ccc1Nc1ncnc(Nc2ccccc2S(=O)(=O)C(C)C)n1 , if possible.
a: 3.3

q: How about CC[C@@H]1C(=O)OC[C@@H]1Cc1cncn1C ?
a: 0

q: Same for CO[C@H]1C[C@@H]2CC[C@@H](C)[C@@](O)(O2)C(=O)C(=O)N2CCCC[C@H]2C(=O)O[C@H]([C@H](C)C[C@@H]2CC[C@@H](OP(C)(C)=O)[C@H](OC)C2)CC(=O)[C@H](C)/C=C(\C)[C@@H](O)[C@@H](OC)C(=O)[C@H](C)C[C@H](C)/C=C/C=C/C=C/1C
a: 3.5

q: Now the same for C[C@@H]1CN(C(=O)c2ccc(NC(=O)c3cc(O[C@H](C)c4c(Cl)ccc(F)c4Cl)c(N)nn3)cc2)C[C@H](C)N1
a: 0

q: Okay, and C=CC(=O)Nc1cc(Nc2nccc(-c3cn(C)c4ccccc34)n2)c(OC)cc1N(C)CCN(C)C ?
a: 6.6

q: Follow-up entry: O=C1NC(=O)[C@@H](c2cn3c4c(cccc24)CCC3)[C@@H]1c1c[nH]c2ccccc12 [Tivantinib]
a: 6.7

q: Similarly, CN1CCN(c2ccc3nc(-c4c(N)c5c(F)cccc5[nH]c4=O)[nH]c3c2)CC1 ?
a: 1.6

q: Next molecule: COCC[n+]1c2c(n(Cc3cnccn3)c1C)C(=O)c1ccccc1C2=O [Sepantronium bromide]
a: 38.7

q: Try this molecule too: CO[C@@H](C(=O)N1Cc2[nH]nc(NC(=O)c3ccc(N4CCN(C)CC4)cc3)c2C1)c1ccccc1
a: 10.4

q: Now this one: CN1C(=O)N[C@H](Cc2c[nH]c3c(Cl)cccc23)C1=O
a: 0

* * *

Form field: TC50 cytotoxicity (one value per entry).
system: DLD1 NRF2-GOF; assay: TC50 cytotoxicity; higher = less toxic; conditions: 72 h; CellTox Green cytotoxicity

1. CO[C@H](C(=O)[C@@H](O)[C@@H](C)O)[C@@H]1Cc2cc3cc(O[C@H]4C[C@@H](O[C@H]5C[C@@H](O)[C@H](O)[C@@H](C)O5)[C@@H](O)[C@@H](C)O4)c(C)c(O)c3c(O)c2C(=O)[C@H]1O[C@H]1C[C@@H](O[C@H]2C[C@@H](O[C@H]3C[C@](C)(O)[C@H](O)[C@@H](C)O3)[C@H](O)[C@@H](C)O2)[C@H](O)[C@@H](C)O1    > 10 µM

Let's switch to this compound now.
q: Returns the measured TC50 cytotoxicity for the input compound. Input: C=C(c1ccc(C(=O)O)cc1)c1cc2c(cc1C)C(C)(C)CCC2(C)C
a: > 10 µM

* * *

# drug sensitivity score per entry
tested on: DLD1 NRF2-GOF; experiment: drug sensitivity score (DSS) cytotoxicity (DSS score); higher = more toxic; extreme values may be limits of the assay; settings: 72 h; CellTox Green cytotoxicity
Give the figure only, with no unit attached.

Use these answered entries as a reference point.
1. COc1cc(Nc2ncc(F)c(Nc3ccc4c(n3)N(COP(=O)(O)O)C(=O)C(C)(C)O4)n2)cc(OC)c1OC    0.2
2. CC[C@]1(O)C[C@H]2CN(CCc3c([nH]c4ccccc34)[C@@](C(=O)OC)(c3cc4c(cc3OC)N(C)[C@H]3[C@@](O)(C(=O)OC)[C@H](OC(C)=O)[C@]5(CC)C=CCN6CC[C@]43[C@@H]65)C2)C1    3.4
3. CN1CCN(c2ccc(C(=O)Nc3n[nH]c4ccc(Cc5cc(F)cc(F)c5)cc34)c(NC3CCOCC3)c2)CC1    0

q: Fill in the blank: the reported drug sensitivity score of Nc1ncnc2c1c(-c1cccc(OCc3ccccc3)c1)cn2[C@H]1C[C@@H](CN2CCC2)C1 is ____.
a: 1.5

q: And what about the molecule CNC(=O)c1ccc(-c2cnc3ncc(Cc4ccc5ncccc5c4)n3n2)cc1F ?
a: 0

q: Entry to check: COC[C@H](NC(=O)c1cnc(C)s1)C(=O)N[C@@H](COC)C(=O)N[C@@H](Cc1ccccc1)C(=O)[C@@]1(C)CO1
a: 15.9
